Assay: Ratio between Kr to Ki
Type: functional
endpoint: Ratio

[A] COc1cc(C(N)=O)nc(-c2ccc(Oc3ccc(F)cc3)cc2)c1
[B] NC(=O)N/N=C/c1ccc(Oc2ccc(F)cc2)cc1
[C] O=C(NCCN1CCCCC1)c1cccc(-c2ccc(Oc3ccc(F)cc3)cc2)n1
Arrange the 3 compounds from largest to smallest Ratio. # list labels per requested ordering
C, B, A

###

Species on record: Rattus norvegicus
Assay: Inhibition of native TTX-R sodium currents in acutely dissociated rat dorsal root ganglion (DRG)
Assay type: functional
The reader will find reported Inhibition activity values listed item by item below.
Response body: numeric value in µM, unit text excluded.

Reference set, count: 3
{"columns": ["molecule", "reported_measurement"],
 "data": [
  ["Cc1cc(OCCN2CCCCC2)cc(-c2ccc(Oc3ccc(F)cc3)cc2)n1", 0.08],
  ["NC(=O)N/N=C/c1ccc(Oc2ccc(F)cc2)cc1", 0.26],
  ["NC(=O)N1c2ccccc2C=Cc2ccccc21 [CARBAMAZEPINE]", 111]
]}

Provide Inhibition activity value for the following molecule: O=C(NCCN1CCCCC1)c1ccc(-c2ccc(Oc3ccc(F)cc3)cc2)nc1
1.56

Let me know recorded Inhibition activity for NC(=O)c1cccc(-c2ccc(Oc3ccc(F)cc3)cc2)n1 , thanks.
0.27

Specify Inhibition activity for O=C(NCCN1CCCCC1)c1cccc(-c2ccc(Oc3ccc(F)cc3)cc2)n1 and stop.
0.06

Using the record for COc1cc(C(=O)NCCN(C)C)nc(-c2ccc(Oc3ccc(F)cc3)cc2)c1 , state its measured Inhibition activity.
1.56

Look up Inhibition activity of NC(=O)c1cc(N2CCOCC2)cc(-c2ccc(Oc3ccc(F)cc3)cc2)n1 and report it.
0.1

Fill in Inhibition activity for record Nc1nnc(-c2cccc(Cl)c2Cl)c(N)n1
103

Identify measured Inhibition activity associated with Cc1cc(N(C)C)cc(-c2ccc(Oc3ccc(F)cc3)cc2)n1
0.34

###

Assay: Ratio between Kr to Ki
Type: functional
endpoint: Ratio

{"columns": ["compound_structure_string", "Ratio"],
 "data": [
  ["Cc1cc(OCCN2CCCCC2)cc(-c2ccc(Oc3ccc(F)cc3)cc2)n1", 362]
]}

[A] O=C(NCCN1CCCCC1)c1ccc(-c2ccc(Oc3ccc(F)cc3)cc2)nc1
[B] Cc1cc(N(C)C)cc(-c2ccc(Oc3ccc(F)cc3)cc2)n1
Between A and B , which one has the lower reported Ratio value? Identify your pick by its label.
B

[I] NC(=O)c1cccc(-c2ccc(Oc3ccc(F)cc3)cc2)n1
[II] O=C(NCCN1CCCCC1)c1cncc(-c2ccc(Oc3ccc(F)cc3)cc2)c1
[III] NC(=O)c1cccnc1-c1ccc(Oc2ccc(F)cc2)cc1
Place the items in sequence of falling Ratio. Would you mind listing the labels in the order requested?
I, II, III
(I: 252, II: 68, III: 5)

Source listed as ChEMBL document CHEMBL1138680.
